- assayed target: PSMA (Homo sapiens)
- Construct: endogenous in cells; host or cells: LNCaP prostate cancer cells
- Sequence (Q04609 whole entry): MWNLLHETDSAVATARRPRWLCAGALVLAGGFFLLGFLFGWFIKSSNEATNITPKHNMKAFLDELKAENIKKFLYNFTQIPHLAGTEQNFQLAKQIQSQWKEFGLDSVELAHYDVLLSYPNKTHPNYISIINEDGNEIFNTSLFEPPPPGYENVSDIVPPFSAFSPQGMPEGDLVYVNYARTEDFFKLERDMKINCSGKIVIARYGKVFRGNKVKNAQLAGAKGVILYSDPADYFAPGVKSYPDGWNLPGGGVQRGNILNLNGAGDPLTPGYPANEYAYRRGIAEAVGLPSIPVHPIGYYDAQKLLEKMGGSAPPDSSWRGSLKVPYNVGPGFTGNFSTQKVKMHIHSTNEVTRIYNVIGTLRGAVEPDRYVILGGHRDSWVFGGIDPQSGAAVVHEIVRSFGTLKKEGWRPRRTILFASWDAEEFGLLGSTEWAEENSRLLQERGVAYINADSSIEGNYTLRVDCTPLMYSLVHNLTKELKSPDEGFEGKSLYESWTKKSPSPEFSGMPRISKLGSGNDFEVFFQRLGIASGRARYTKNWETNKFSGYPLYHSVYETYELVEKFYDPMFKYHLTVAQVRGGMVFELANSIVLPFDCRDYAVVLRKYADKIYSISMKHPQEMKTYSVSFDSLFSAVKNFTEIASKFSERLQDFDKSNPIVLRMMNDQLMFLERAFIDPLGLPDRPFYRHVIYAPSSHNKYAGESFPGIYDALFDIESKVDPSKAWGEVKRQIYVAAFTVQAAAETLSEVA
- method: In vitro competition binding assay using LNCaP cells and [18F]DCFPyL as radioligand
- conditions used: displacement of [18F]DCFPyL from LNCaP cells, n = 3; read-out: PSMA binding affinity (Ki)
compounds and their reported pKi
In plain terms, pKi is the concentration in mol/L turned into minus its base-10 logarithm.

INPUT: Any idea what pKi came out for O=C([O-])CN1CCN(CC(=O)[O-])CCN(CC(=O)NCC2CCC(C(=O)NC(Cc3c4ccccc4cc4ccccc34)C(=O)NCCCCC(NC(=O)NC(CCCC(=O)O)C(=O)O)C(=O)O)CC2)CCN(CC(=O)[O-])CC1.[Ga+3] (stereo not shown) on PSMA (Homo sapiens)?
OUTPUT: 8.16

---
INPUT: Request - read-out pKi | tested on PSMA (Homo sapiens) | compound O=C([O-])CN1CCN(CC(=O)[O-])CCN(CC(=O)NCC2CCC(C(=O)NC(Cc3c4ccccc4cc4ccccc34)C(=O)NCCCCC(NC(=O)NC(CC(=O)O)C(=O)O)C(=O)O)CC2)CCN(CC(=O)[O-])CC1.[Ga+3] (stereo not shown)
OUTPUT: 8.41

INPUT: Here is the next compound: O=C([O-])CN1CCN(CC(=O)[O-])CCN(CC(=O)NCC2CCC(C(=O)NC(Cc3c4ccccc4cc4ccccc34)C(=O)NCCCCC(NC(=O)NC(CCCCC(=O)O)C(=O)O)C(=O)O)CC2)CCN(CC(=O)[O-])CC1.[Ga+3] (single isomer, unassigned) [Ga-HTK03189A]
OUTPUT: 6.26

INPUT: Okay, and O=C([O-])CN1CCN(CC(=O)[O-])CCN(CC(=O)NCC2CCC(C(=O)NC(Cc3c4ccccc4cc4ccccc34)C(=O)NCCCCC(NC(=O)NC(CCCC(=O)O)C(=O)O)C(=O)O)CC2)CCN(CC(=O)[O-])CC1.[Lu+3] (stereo not shown) ?
OUTPUT: 8.80

Reference source: paper PMC9475448
